Origin of measurements: patent US10513521B2

Target: ALK2 (Mus musculus, UniProt P37172)
Construct: The C2C12 cell line was selected for the measurement of ALK2 activity using BMP6 as the agonist; host or cells: C2C12
Sequence (P37172 21-509): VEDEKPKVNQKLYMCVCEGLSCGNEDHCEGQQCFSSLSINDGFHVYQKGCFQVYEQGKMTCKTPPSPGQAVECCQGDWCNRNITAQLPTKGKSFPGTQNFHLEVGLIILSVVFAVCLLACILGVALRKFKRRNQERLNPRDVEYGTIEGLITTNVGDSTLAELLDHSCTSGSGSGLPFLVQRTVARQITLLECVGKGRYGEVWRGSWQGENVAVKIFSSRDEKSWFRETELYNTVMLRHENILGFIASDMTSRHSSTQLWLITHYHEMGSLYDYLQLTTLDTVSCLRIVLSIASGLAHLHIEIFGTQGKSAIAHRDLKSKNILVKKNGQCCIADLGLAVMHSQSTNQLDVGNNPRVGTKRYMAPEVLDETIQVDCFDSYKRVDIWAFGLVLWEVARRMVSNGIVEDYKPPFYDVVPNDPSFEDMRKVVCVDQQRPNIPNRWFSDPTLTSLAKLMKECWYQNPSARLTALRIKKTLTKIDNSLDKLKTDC
Test: HTRF pSMAD1 cell-based ALK2 assay (C2C12 cells, BMP6 as agonist)
Conditions: cell-based assay, BMP6; read-out: Cell IC50 BMP6
List of IC50 values.
Give your result in nM as a bare value.

compound | units_symbol | IC50
CNS(=O)(=O)c1cccc(-c2cnn3cc(-c4ccc(N5[C@H](C)CNC[C@@H]5C)cc4)cnc23)c1 [Compound 76] | nM | 67

Lookup: IC50 / ALK2 (Mus musculus, UniProt P37172) / N/C(=N/O)c1ccc(-c2cnn3cc(-c4ccc(N5CCNCC5)cc4)cnc23)cc1 [Compound 13]
380

Lookup: IC50 / ALK2 (Mus musculus, UniProt P37172) / CS(=O)(=O)c1cccc(-c2cnn3cc(-c4ccc(CN5CCCCC5)cc4)cnc23)c1 [Compound 123]
2.4

Lookup: IC50 / ALK2 (Mus musculus, UniProt P37172) / N/C(=N/O)c1ccc(-c2cnn3cc(-c4ccc(N5CCNCC5)cc4)cnc23)c2ccccc12 [Compound 15]
170

Lookup: IC50 / ALK2 (Mus musculus, UniProt P37172) / C[C@@H]1CNC[C@H](C)N1c1ccc(-c2cnc3c(-c4cccc(S(N)(=O)=O)c4)cnn3c2)cc1 [Compound 60]
609

Lookup: IC50 / ALK2 (Mus musculus, UniProt P37172) / C[C@@H]1CNC[C@H](C)N1c1ccc(-c2cnc3c(-c4ccc(CO)c5ccccc45)cnn3c2)cc1 [Compound 22]
2

Lookup: IC50 / ALK2 (Mus musculus, UniProt P37172) / CN(C)C(=O)c1cccc2c(-c3cnn4cc(-c5ccc(N6CCNCC6)cc5)cnc34)cccc12 [Compound 8]
2070
